target: human chemokine receptor 2 isoform B (CCR2B) (Homo sapiens, UniProt P41597)
Sequence (P41597 1-360 isoform P41597-2): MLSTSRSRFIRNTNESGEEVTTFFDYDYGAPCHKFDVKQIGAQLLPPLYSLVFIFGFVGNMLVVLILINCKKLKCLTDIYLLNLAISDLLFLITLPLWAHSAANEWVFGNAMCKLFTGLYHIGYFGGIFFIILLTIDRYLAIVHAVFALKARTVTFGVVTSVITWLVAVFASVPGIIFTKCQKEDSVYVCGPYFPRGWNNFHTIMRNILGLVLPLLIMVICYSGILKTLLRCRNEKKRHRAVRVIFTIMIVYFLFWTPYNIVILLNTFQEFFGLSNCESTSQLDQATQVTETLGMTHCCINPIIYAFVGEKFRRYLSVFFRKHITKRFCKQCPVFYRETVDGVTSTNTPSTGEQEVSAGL
procedure.summary: Calcium mobilization assay (FLIPR, MCP-1 stimulated CHOK1-CCR2B-A5 cells)
cond: 20 nM MCP-1, antagonist activity, read-out: IC50 (inhibitor concentration required for 50% inhibition of specific calcium increases)
Listed compounds paired with reported IC50
Don't forget the unit after the number, please.

For orientation, consider the following solved cases.
Cc1cc(-c2cccc(C(F)(F)F)c2)c(-n2cncn2)nc1C(=O)N1CCC(N2CCCC2)CC1 [Example 25] :: 2.3 nM
Cc1cc(-c2cccc(C(F)(F)F)c2F)cnc1C(=O)N1CCC(N2CCCC2)CC1 [Example 36] :: 180 nM
Cc1cc(-c2cccc(C(F)(F)F)c2)c(C(=O)N2CCN(C(=O)OC(C)(C)C)CC2)nc1C(=O)N1CCC(N2CCCC2)CC1 [Example 59] :: 490 nM
Cc1cc(-c2cccc(C(F)(F)F)c2)c(Cl)nc1C(=O)N1CCC(N2CCCC2)CC1 [Example 3] :: 4 nM
Cc1cc(-c2cccc(C(F)(F)F)c2)c(Oc2cccnc2)nc1C(=O)N1CCC(N2CCCC2)CC1 [Example 62] :: 69 nM

Determine its reported IC50: Cc1cc(-c2cc(F)cc(C(F)(F)F)c2)cnc1C(=O)N1CCC(N2CCCC2)CC1 [Example 37] 36 nM

Determine its reported IC50: Cc1cc(-c2cccc(C(F)(F)F)c2)c(N)nc1C(=O)N1CCC(N2CCCC2)CC1 [Example 7] 16 nM

Determine its reported IC50: Cc1cc(-c2cccc(C(F)(F)F)c2)c(C(N)=O)nc1C(=O)N1CCC(N2CCCC2)CC1 [Example 43] 25 nM

Determine its reported IC50: Cc1cc(-c2cccc(C(F)(F)F)c2)c(C#N)nc1C(=O)N1CCC(N2CCCC2)CC1 [Example 42] 26 nM

Determine its reported IC50: Cc1cc(-c2cccc(C(F)(F)F)c2)c(C(=O)NC2CCNCC2)nc1C(=O)N1CCC(N2CCCC2)CC1 [Example 60] 290 nM

Determine its reported IC50: COc1ccc(-c2cnc(C(=O)N3CCC(N4CCCC4)CC3)c(C)c2)cc1C(F)(F)F [Example 35] 560 nM

Determine its reported IC50: C#Cc1nc(C(=O)N2CCC(N3CCCC3)CC2)c(C)cc1-c1cccc(C(F)(F)F)c1 [Example 24] 4.8 nM
